molecular target: wild type HIV RT (Human immunodeficiency virus type 1 group M subtype B, UniProt P04585); assay: IC50 against wild-type HIV reverse transcriptase; type: biochemical; conditions: Table 1, wild-type RT
pIC50: −log10 of the molar value.
# key: entry, value: pIC50
ATTRIBUTE MEASURED: pIC50

1. COc1ccc2c(C)ccc(-n3c(Br)nnc3SCC(=O)Nc3ccc(C(=O)O)cc3Cl)c2c1 [Compound 15]: > 7.30
2. Cc1cc(C2CC2)cc(Cl)c1-n1c(Br)nnc1SCC(=O)Nc1ccc(C(=O)O)cc1Cl [Compound 20]: > 7.30

* * *

tested on: wild-type (WT) HIV; assay: EC50 against wild-type HIV; type: cell-based; settings: Human immunodeficiency virus 1, read-out: EC50 WT (nM)
# key: entry, value: EC50
ATTRIBUTE MEASURED: EC50

1. Cc1cc(C2CC2)cc(Cl)c1-n1c(Br)nnc1SCC(=O)Nc1ccc(C(=O)O)cc1Cl: < 50 nM
2. COc1ccc2c(C)ccc(-n3c(Br)nnc3SCC(=O)Nc3ccc(C(=O)O)cc3Cl)c2c1: < 50 nM
